Test system: P. vulgatus WT;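 also: active when median AUC fell below 0.1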
Assay: growth AUC normalised to DMSO control (median) (fraction of control); higher = less growth inhibition, active = hit call of the paper
Details: 20 µM
Counter-ions that a name gives are not always drawn.

# compound, tgt, growth AUC normalised to DMSO control
measured = [
    ("CCOC(=O)[C@H](CCc1ccccc1)N[C@@H](C)C(=O)N1Cc2ccccc2C[C@H]1C(=O)O [Quinapril hydrochloride]", "P. vulgatus WT", 0.982),
    ("CCCC(=O)OCOC(=O)C1=C(C)NC(C)=C(C(=O)OC)C1c1cccc(Cl)c1Cl (stereo unspecified)", "P. vulgatus WT", 0.992),
    ("C[C@H](N[C@@H](CCc1ccccc1)C(=O)O)C(=O)N1CCC[C@H]1C(=O)O [Enalaprilat dihydrate]", "P. vulgatus WT", 0.986),
    ("CCOC(=O)[C@H](CCc1ccccc1)N[C@@H](C)C(=O)N1CCC[C@H]1C(=O)O [Enalapril maleate]", "P. vulgatus WT", 1.02),
    ("CCOC(=O)[C@H](CCc1ccccc1)N[C@@H](C)C(=O)N(CC(=O)O)C1Cc2ccccc2C1 [Delapril Hydrochloride]", "P. vulgatus WT", 0.999),
    ("Cn1c(=O)c2c(ncn2CC(O)CO)n(C)c1=O (stereo unspecified)", "P. vulgatus WT", 0.989),
    ("O=C(O)CCC(=O)c1ccc(-c2ccccc2)cc1", "P. vulgatus WT", 0.994),
    ("C[C@]12C=CC(=O)C=C1CC[C@@H]1[C@@H]2C(=O)C[C@@]2(C)[C@H]1CC[C@]2(O)C(=O)CO", "P. vulgatus WT", 1.02),
    ("CC(=O)O[C@]1(C(C)=O)CC[C@H]2[C@@H]3C=C(C)C4=CC(=O)CC[C@@H]4[C@H]3CC[C@@]21C [Nomegestrol acetate]", "P. vulgatus WT", 1),
    ("COc1ccccc1N1CCN(CCCNc2cc(=O)n(C)c(=O)n2C)CC1 [Urapidil hydrochloride]", "P. vulgatus WT", 0.976),
    ("CC(=O)[C@@]12O[C@](C)(c3ccccc3)O[C@@H]1C[C@H]1[C@@H]3CCC4=CC(=O)CC[C@]4(C)[C@H]3CC[C@@]12C [Algestone acetophenide]", "P. vulgatus WT", 0.983),
]
